Collected protease stability score values appear next to each entry.
# Procedure Summary: protease stability score; higher = more stable; yeast display proteolysis, trypsin and chymotrypsin;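 further: relative to predicted unfolded state with 0 unfolded-like and 1 meaning tenfold more protease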
Write the number on its own, no unit after it.

{"columns": ["Seq", "protease stability score"],
 "data": [
  ["DDVEKDARWLVDELIHLLETGDEDTLLKLADPNTRIEIGDFHFHGRRDLKRILHEMRVKLDHLRIEHLDAQGEWIYIQFHYHQTINVNGRVVHEQRRVELESIKINGRWTIHFFKVK", 1.28]
]}

Entry DESERIILHIANEFLHLYATGDEDRLRELADPHVRLDVDGQDVHGRELTQKWWKRFVEEIRIRDLHLKDYYIIGEKYHIEGHTRLHIGDKHVETEIRIHIVVVNGKIKSESFHLR : reported protease stability score = ?
0.541

Now try DESEELSRIASHLFLRMMHTGNEEEISKLADPNTRLDVNGKHFHGMELIIHFLHELRRKLGVKYIRLKSVHITIVNGKVDLELEGDLLQGDFEIPSHIRNIALKVDGKWFIHRQEFRFE .
1.32

Now try DEDEKKLHKLSDELEHIWLTGDEDRWLELADPNTKVIINGKEVHGRENVAREIKKFLEDLGIDHFYIESSLAIDGRTDLNGQIHVNGRTLHVRIINHEFNGRVKRVEIHIR .
2.09

Now try SEDEEFAKHASEIMSRILETGNEEETNRMMDPNVRLDWNGQDHVGREDVLRFRKLIIEILGIERIKVELHDVKTVNGRVHTDIIVNINGQEYRLRVFMTKVNGRWHVKFMEFE .
1.7

###

Collected protease stability score values appear next to each entry.
# Procedure Summary: protease stability score; higher = more stable; yeast display proteolysis, trypsin and chymotrypsin;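 further: relative to predicted unfolded state with 0 unfolded-like and 1 meaning tenfold more protease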
Write the number on its own, no unit after it.

Some sequences with known protease stability score results, for comparison:
{"columns": ["Seq", "Observed Value"],
 "data": [
  ["SEDEQESRDIIKLLDKSIETGDEKTATRLADPHMRLDIDGVDLHGREEFVRWVIFVVREMRSRVEHTRVRMYDGRAEVDTTLLFIFEGRELRVESHIIMLKIDGRWIIHEVRIH", 1.26],
  ["DELELHAEEMYEIWIKLEETGDWEIMLELADPNTKVTWNGVRIHGMEHYLERHHREHRKIKNITTHFILRDIDVIGNKSHVDGEVEIRVNGKTIILRVHFDNVVIDGRFKSHRVIVK", 1.03],
  ["EEDRRMVEDAIRIFLKSLRTGDEESLTRMVDPHVKYHQGEYHMHGREELVRYFAERWEELGVENINTDMRPTHIEFQGEKIIIMGRYHLHVNGRESHTRIEFIATKIDGQWRLHKIRFE", 1.53],
  ["DEEHEWMHIMMELLLRAFETGDPDLFEHLADPNTRLQIGDKTIHGRTKVSTWLHREIRRADHLEIRLREYDYQGDKLEMKTELIIQQGDKQVQLETRVIIIKINGRWFLESIEIN", 1.23]
]}

Turning now to a further sequence:
Entry EEDEKTAEEMMHIWIKYLMTGNEERLYKLVDPNARIEFNGRTDHGRESFTKFLRELGIKHSHIEEIRWDVQGEKVILTLHGRLDVNGVDRSNEILIIAEKVNGRWRVESVHLHLR : reported protease stability score = ?
1.27

###

# Procedure Summary: protease stability score; higher = more stable; yeast display proteolysis, trypsin and chymotrypsin;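 further: relative to predicted unfolded state with 0 unfolded-like and 1 meaning tenfold more protease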
Recorded Endpoint: protease stability score
Write the number on its own, no unit after it.

{"columns": ["Seq", "protease stability score"],
 "data": [
  ["SEDEELMRRAEDFIIETWETGDWELLHHLADPRVQLDINGRTEHGRENMNEALRRWLDDLGFDHHRVRKKHVIDGRVILDFEIFQGDKEVHLHLHNVVVNGRMKSVHFKLQDN", -0.052]
]}

Entry DEEDRKSERVLKEFLHDVLTGDEHTLNRLADPHVRLEVGDKEDHGREKLAKYMVRADHIEHVELRHHHFQGDKIHLHVKIRENVNGREVIFESIEIWLKIDGRWILDSLIVK : reported protease stability score = ?
0.091

Now try TEEEEQIKEMMEEMQHSYKTGDWRAISELLDPNVRMHIGDKEFHGREDLLRVFKHIRVKHLEIHHVRIIDGRAEVETTYTLVVDGVEHVHHTHIHSRKINGRWHIEEVYIH .
2.02

Now try EEEHKFITDIVRLFQELLRTGDFTLLRRMIDPHARIDINGVENHGWEKTARHIWELGMTRESEVRIRDVKVYDGRVEIDIEVEIHNDYNGRKIVVRHEIILFVIKFNGRWNLEQIHIK .
1.65

Now try SEDEEIAHHVVNLIMKIIRTGDEDNFKQLFDPHTRFTVGDKHHIGRETVIEFFRRWEEFYPNIQLELRLRDVKAYGDKVHVETEVIIRVGDKDLRFETTVYILKYNGRWFLKQEQFR .
0.769

Now try NELEDRFDYAMKLWIDILRTGDEHQFEEMADPNVRIIDGDKHNVGREILYFLLWKFGFDNFEFRLHDFKIQGEKIHIDGHFRVDGQTHRVHFVVLKIDGRWLVESVERK .
2.01
